The values you see were collected from PubChem BioAssay AID1159580.

normalized growth by entry:
test: chemical genetic growth profiling, strain panel (AID 1159580);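 further: tested at 20 µM; growth read once vehicle control cultures reached saturation at 30 °C; 1 = growth at the plate median or of vehicle wells; lower values mean less growth of the strain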; settings: S. cerevisiae deletion strains, growth OD, locus YLR133W, strain CKI1, active compounds read low
Screen size: about 5,500 compounds; about 2,000 (36%) were called active. Not shown: some 18% with an inconclusive outcome. This is one part of the list.
Simply state the number, no unit and no words.

O=C(NCC1COc2ccccc2O1)c1ccc(Cl)cc1 (stereo unspecified)    0.88
O=C(Nc1ccc(Cl)cc1)SCc1c(Cl)cccc1Cl    0.816
S=C(Nc1ccc(Cl)cc1)SCc1c(Cl)cccc1Cl    0.993
O=C(c1cccs1)N(Cc1cccnc1)Cc1ccc(Cl)cc1Cl    0.945
CC(C)(C)C(=O)N(Cc1cccnc1)Cc1ccc(Cl)cc1Cl    0.952

Now, please, on to the next molecule.
Which normalized growth value belongs to O=C(CSCc1csc2ccccc12)Nc1ccc(F)c(Cl)c1 ?
0.899
